tested on: phenylquinone writhing in mice; experiment: Phenylquinone Writhing Assay (analgesia); format: in vivo, mouse (Carworth CF1 male mice); conditions: Mus musculus, po, 0.25 h, 100 mg/kg oral, 15 Min.; read-out: Phenylquinone Writhing Assay (% Control), percent analgesia
attribute.measured: responders at 100 mg/kg
Just so you know, I need the unit written after the number.

Input line: # get_value(readout='responders at 100 mg/kg', item= CSc1nncc(-c2ccc(F)cc2F)n1 )
Output line: 20%

Input line: // repeat for c1ccc(-c2nnc(-c3ccccn3)nc2-c2ccccc2)cc1 and report
Output line: 10%

Input line: // repeat for COc1nncc(-c2c(C)cc(C)cc2C)n1 and report
Output line: 10%

Input line: // repeat for OCCNc1nncc(-c2ccccc2)n1 and report
Output line: 30%

Input line: // repeat for CCCOc1nncc(-c2ccccc2)n1 and report
Output line: 10%

Input line: // repeat for CSc1nncc(-c2ccc3c(c2)OCO3)n1 and report
Output line: 20%

Input line: // repeat for NNc1nncc(-c2ccccc2)n1 [Example 3, 3-hydrazino-5-phenyl-1,2,4-triazine] and report
Output line: 100%

Input line: // repeat for CSc1nncc(C2CC2)n1 and report
Output line: 20%

Input line: // repeat for CSc1nncc(-c2c(C)cc(C)cc2C)n1 and report
Output line: 10%

Input line: // repeat for c1ccc(Oc2nnc(-c3ccccc3)c(-c3ccccc3)n2)cc1 and report
Output line: 20%

Input line: // repeat for COc1nncc(-c2c3ccccc3cc3ccccc23)n1 and report
Output line: 10%

Input line: // repeat for COc1nnc(-c2ccc(OC)c(OC)c2)c(-c2ccc(OC)c(OC)c2)n1 and report
Output line: 10%

Input line: // repeat for COc1ccc(-c2nnc(SC)nc2-c2ccc(OC)c(OC)c2)cc1OC and report
Output line: 10%

Input line: // repeat for CSc1nncc(-c2ccc(Br)cc2)n1 and report
Output line: 10%
